target: S. aureus DnaE (DNA polymerase III α-subunit homolog from Staphylococcus aureus) (Staphylococcus aureus, UniProt Q5HF71); construct: SaDnaE (S. aureus DnaE residues 1-1065); 6xHis (N); made in house; host or cells: E. coli BL21-AI; test: biochemical; type: biochemical; settings: S. aureus DnaE IC50
Sequence (Q5HF71 whole entry, the tested form may be a part): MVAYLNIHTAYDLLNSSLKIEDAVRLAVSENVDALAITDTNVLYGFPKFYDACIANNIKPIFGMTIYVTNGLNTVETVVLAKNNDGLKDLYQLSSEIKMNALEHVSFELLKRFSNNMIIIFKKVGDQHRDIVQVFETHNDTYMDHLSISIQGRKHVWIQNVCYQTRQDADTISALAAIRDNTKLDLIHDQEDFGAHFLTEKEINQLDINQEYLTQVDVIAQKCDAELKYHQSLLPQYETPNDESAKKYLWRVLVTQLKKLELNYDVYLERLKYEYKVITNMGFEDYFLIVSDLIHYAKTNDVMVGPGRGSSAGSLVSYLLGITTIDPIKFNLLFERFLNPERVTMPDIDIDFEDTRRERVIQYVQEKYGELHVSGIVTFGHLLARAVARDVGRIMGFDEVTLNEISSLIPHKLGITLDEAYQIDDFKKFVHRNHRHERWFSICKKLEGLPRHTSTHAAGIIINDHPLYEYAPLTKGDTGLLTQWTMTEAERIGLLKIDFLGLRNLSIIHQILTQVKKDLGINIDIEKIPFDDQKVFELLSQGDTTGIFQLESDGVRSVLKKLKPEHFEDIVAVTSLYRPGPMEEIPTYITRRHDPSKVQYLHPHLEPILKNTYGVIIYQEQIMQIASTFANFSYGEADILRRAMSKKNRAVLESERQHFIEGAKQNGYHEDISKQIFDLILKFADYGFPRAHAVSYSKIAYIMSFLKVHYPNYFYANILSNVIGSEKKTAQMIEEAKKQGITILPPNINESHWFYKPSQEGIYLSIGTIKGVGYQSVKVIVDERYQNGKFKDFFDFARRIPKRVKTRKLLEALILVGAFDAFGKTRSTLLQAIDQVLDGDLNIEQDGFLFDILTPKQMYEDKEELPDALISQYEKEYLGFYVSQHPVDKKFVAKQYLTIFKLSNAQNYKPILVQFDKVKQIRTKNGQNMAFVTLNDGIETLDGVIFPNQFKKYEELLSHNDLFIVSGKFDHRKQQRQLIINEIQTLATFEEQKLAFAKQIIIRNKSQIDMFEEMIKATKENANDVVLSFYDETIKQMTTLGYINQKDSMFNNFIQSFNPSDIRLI
pIC50: −log10 of the molar value.
recorded-metric: pIC50

molecule: CCCNC(=O)O[C@@H]1[C@@H](C)[C@@H](OC(=O)c2ccc[nH]2)[C@@H]2O[C@@]34/C(C)=C/[C@@H](C)[C@@H]([C@@H](C)OC(=O)NCCC)OC(=O)[C@@H](OC)C[C@H]3C=C[C@@H]2[C@@H]14 [Example 3]
recorded-metric: pIC50
relation-symbol: <
value-observed: 3.84
--
molecule: CO[C@H]1C[C@H]2C=C[C@H]3[C@H]4O[C@]2(/C(C)=C/[C@@H](C)[C@@H]([C@@H](C)OC(N)=O)OC1=O)[C@@H]3[C@H](O)[C@@H](C)[C@H]4OC(=O)c1ccc[nH]1 [Example 7]
recorded-metric: pIC50
relation-symbol: >
value-observed: 7.97
--
molecule: CO[C@H]1C[C@H]2C=CC3C4[C@H](O)[C@@H](C)[C@@H](OC(=O)c5ccc[nH]5)[C@@H]3O[C@]42/C(C)=C/[C@@H](C)C([C@@H](C)O)NC1=O (stereo partly drawn) [Example 170]
recorded-metric: pIC50
relation-symbol: =
value-observed: 5.60
--
molecule: CC[C@H]1OC(=O)[C@@H](OC)C[C@H]2C=C[C@H]3[C@H]4O[C@]2(/C(C)=C/[C@H]1C)[C@@H]3[C@H](O)C(C)[C@H]4C#N (stereo partly drawn) [Example 189]
recorded-metric: pIC50
relation-symbol: =
value-observed: 3.84
--
molecule: CO[C@H]1CC2C=C[C@H]3[C@H]4O[C@]2(/C(C)=C/[C@@H](C)[C@@H]([C@@H](C)OC(=O)OC2CCC(O)CC2)OC1=O)[C@@H]3[C@H](O)[C@@H](C)[C@H]4OC(=O)c1ccc[nH]1 (single isomer, unassigned) [Example 34]
recorded-metric: pIC50
relation-symbol: =
value-observed: 7.97
--
molecule: CO[C@H]1C[C@H]2C=C[C@H]3[C@H]4O[C@]2(/C(C)=C/[C@@H](C)[C@@H]([C@@H](C)OC(=O)NNC(N)=O)OC1=O)[C@@H]3[C@H](O)[C@@H](C)[C@H]4OC(=O)c1ccc[nH]1 [Example 23]
recorded-metric: pIC50
relation-symbol: >
value-observed: 8.01
--
molecule: CO[C@H]1C[C@H]2C=C[C@H]3[C@H]4O[C@]2(/C(C)=C/[C@@H](C)[C@@H]([C@@H](C)O)OC1=O)[C@@H]3[C@H](O)[C@@H](C)[C@H]4OC(=O)c1cccn1C [Example 196]
recorded-metric: pIC50
relation-symbol: =
value-observed: 5.01
--
molecule: CO[C@H]1C[C@H]2C=C[C@H]3[C@H]4O[C@]2(/C(C)=C/[C@@H](C)[C@@H]([C@@H](C)O)OC1=O)[C@@H]3[C@H](O)[C@@H](C)[C@H]4OC(=O)c1ccc(Br)[nH]1 [Example 43]
recorded-metric: pIC50
relation-symbol: =
value-observed: 6.69

Source listed as patent US9944654B2.
